measuredOn: HNF4alpha2 (COS-7 nuclear extract) (Homo sapiens, UniProt P41235 1-474)
Sequence: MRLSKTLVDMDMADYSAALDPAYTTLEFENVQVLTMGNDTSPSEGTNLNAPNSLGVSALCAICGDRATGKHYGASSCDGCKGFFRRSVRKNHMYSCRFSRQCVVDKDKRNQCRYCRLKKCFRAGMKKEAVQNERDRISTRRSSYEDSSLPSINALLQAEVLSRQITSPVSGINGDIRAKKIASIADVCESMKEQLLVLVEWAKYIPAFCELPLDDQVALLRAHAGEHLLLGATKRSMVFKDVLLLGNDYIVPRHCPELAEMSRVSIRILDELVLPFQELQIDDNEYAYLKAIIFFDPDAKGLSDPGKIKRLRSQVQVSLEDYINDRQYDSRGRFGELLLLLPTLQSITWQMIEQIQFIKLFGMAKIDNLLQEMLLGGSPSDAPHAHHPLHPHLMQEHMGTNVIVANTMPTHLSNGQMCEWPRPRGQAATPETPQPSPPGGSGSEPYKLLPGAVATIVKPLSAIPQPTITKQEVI
measurementDescription: protein-binding microarray; COS-7 nuclear extract on double-stranded Agilent 4x180k PBM; binding buffer, salt, pH and temperature not given in the material; high values mean tight binding
conditionInfo: chain copies: 2; label: 3' end of strand 1 on the slide; dsDNA, one strand shown
The full ranking holds about 18,000 sequences; the median of “log2 normalized intensity” is about 0.39, and the highest 2% start at about 6.6. Many of the other results were omitted from the sample, so the highest values are more common in it than they were.
quantity: binding signal (log2 normalized intensity)
Give bare numbers, in log2 normalized intensity.

Below, each entry is followed by its recorded binding signal result.
TAGATAAGAGCTGAGGAAGTGCTGACCTTTGCCTAGGGAGATTAGAGTATCGGTCGA | 5.77
GTCAGAGTGCTGCATGCAAAAAGGCTGACCGCCTAGGGAGATTAGAGTATCGGTCGA | 1.41
ATATCTATATGTTTACATATCACTGTACTCGCCTAGGGAGATTAGAGTATCGGTCGA | 2.08
CTTATCTTTGACCTTACCAGCCCACTCTTAGCCTAGGGAGATTAGAGTATCGGTCGA | 1.9

Here is the next item to consider.
I am curious: what binding signal value has been reported for `CTTTGGTATGGACTGATATTCAAACAGGTCGCCTAGGGAGATTAGAGTATCGGTCGA` ?
1.31

---

Field: binding signal. Provide a value for each of the sequences that follow.
measuredOn: HNF4alpha2 (COS-7 nuclear extract) (Homo sapiens, UniProt P41235 1-474)
Sequence: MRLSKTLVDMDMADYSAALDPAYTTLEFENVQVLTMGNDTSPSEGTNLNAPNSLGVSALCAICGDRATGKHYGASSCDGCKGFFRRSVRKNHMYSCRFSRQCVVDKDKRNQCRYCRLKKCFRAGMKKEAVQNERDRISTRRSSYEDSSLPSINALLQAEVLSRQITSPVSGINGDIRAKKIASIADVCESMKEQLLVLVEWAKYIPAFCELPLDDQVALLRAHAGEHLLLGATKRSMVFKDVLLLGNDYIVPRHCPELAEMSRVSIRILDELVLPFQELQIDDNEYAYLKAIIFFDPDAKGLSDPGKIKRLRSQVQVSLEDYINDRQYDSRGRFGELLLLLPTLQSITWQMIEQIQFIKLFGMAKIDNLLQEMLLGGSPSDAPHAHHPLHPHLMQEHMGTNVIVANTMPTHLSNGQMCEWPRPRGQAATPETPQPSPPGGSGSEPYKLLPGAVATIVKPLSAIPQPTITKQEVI
measurementDescription: protein-binding microarray; COS-7 nuclear extract on double-stranded Agilent 4x180k PBM; binding buffer, salt, pH and temperature not given in the material; high values mean tight binding
conditionInfo: chain copies: 2; label: 3' end of strand 1 on the slide; dsDNA, one strand shown
Over roughly 18,000 sequences, “log2 normalized intensity” has its median near 0.39; the highest 2% begin near 6.6. Many of the other results were omitted from the sample, so the highest values are more common in it than they were.
Numbers only, in log2 normalized intensity.

Solved cases (5 shown):
ATGTCTCCAGAAACCAACCTTTGATCATTCGCCTAGGGAGATTAGAGTATCGGTCGA | 4.87
CACACTGCAGCAAAACTTTAGGACTTTGAAGCCTAGGGAGATTAGAGTATCGGTCGA | 3.31
TGCAGCAAAACTTTAGGACTTTGAACCTTGGCCTAGGGAGATTAGAGTATCGGTCGA | 8.63
CTCACATGAGCTAGAGCTCGTGTCATCTCTGCCTAGGGAGATTAGAGTATCGGTCGA | -0.899
GGACTTTGAACCTTGGGTCTGTAATCTCACGCCTAGGGAGATTAGAGTATCGGTCGA | 7.11

Answer for every listed entry: what is its binding signal? The entries follow.
1. GAGTGTCCTGCCCCCTGGAGGAGTGAGGGAGCCTAGGGAGATTAGAGTATCGGTCGA
2. TTCGGTGCTGACCTTTGTTCACATTTGTGCGCCTAGGGAGATTAGAGTATCGGTCGA
3. TTGAACCTTGGGTCTGTAATCTCACAACTCGCCTAGGGAGATTAGAGTATCGGTCGA
4. TGATCCATTCTACCCCTGTGGTTGACCTTTGCCTAGGGAGATTAGAGTATCGGTCGA
5. TGTCTCTGGTCAGGGAGGGCTTTAGAATGTGCCTAGGGAGATTAGAGTATCGGTCGA

1: 1.34; 2: 5.06; 3: 1.47; 4: 7.8; 5: 1.01

Below are 5 sequences. Give each one its binding signal.
1. GGGCAGCAAACCTACCTGAACTTTGCCCCAGCCTAGGGAGATTAGAGTATCGGTCGA
2. GCAAACCTACCTGAACTTTGCCCCAGAGGAGCCTAGGGAGATTAGAGTATCGGTCGA
3. ATAAGGGGCAGCAAACCTACCTGAACTTTGGCCTAGGGAGATTAGAGTATCGGTCGA
4. GGAGTTGGAACGGGGGCAAGGGTCAGAGTAGCCTAGGGAGATTAGAGTATCGGTCGA
5. GGACTTGATCCATTCTACCCCTGTGGTTGAGCCTAGGGAGATTAGAGTATCGGTCGA

1: 7.99; 2: 5.9; 3: 3.07; 4: 4.26; 5: 2.25

Below are some sequences; for each one, tell me its binding signal.
1. ACCTTGTGCAGTATCCCAGGGACTTACTCAGCCTAGGGAGATTAGAGTATCGGTCGA
2. CTGGGATGAGATACCCATTCACATGACCTTGCCTAGGGAGATTAGAGTATCGGTCGA
3. TACCCCTGTGGTTGACCTTTAGTCTCTAGCGCCTAGGGAGATTAGAGTATCGGTCGA
4. TCTGCAAACACCCCTCCCCCACACAGACAAGCCTAGGGAGATTAGAGTATCGGTCGA

1. -0.811
2. 3.29
3. 6.48
4. 5.01

---

measuredOn: HNF4alpha2 (COS-7 nuclear extract) (Homo sapiens, UniProt P41235 1-474)
Sequence: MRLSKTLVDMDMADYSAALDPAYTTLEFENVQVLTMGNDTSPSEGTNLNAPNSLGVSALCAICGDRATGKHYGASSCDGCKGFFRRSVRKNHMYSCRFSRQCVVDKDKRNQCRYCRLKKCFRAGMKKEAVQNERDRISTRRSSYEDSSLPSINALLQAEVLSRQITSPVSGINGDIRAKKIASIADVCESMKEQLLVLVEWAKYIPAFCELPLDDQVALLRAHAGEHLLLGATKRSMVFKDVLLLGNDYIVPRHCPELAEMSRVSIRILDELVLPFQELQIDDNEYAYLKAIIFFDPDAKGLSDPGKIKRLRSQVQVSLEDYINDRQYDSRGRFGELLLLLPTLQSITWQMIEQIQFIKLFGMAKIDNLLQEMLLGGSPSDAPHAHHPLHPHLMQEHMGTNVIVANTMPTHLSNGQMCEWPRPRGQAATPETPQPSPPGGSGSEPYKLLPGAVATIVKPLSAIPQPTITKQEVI
measurementDescription: protein-binding microarray; COS-7 nuclear extract on double-stranded Agilent 4x180k PBM; binding buffer, salt, pH and temperature not given in the material; high values mean tight binding
conditionInfo: chain copies: 2; label: 3' end of strand 1 on the slide; dsDNA, one strand shown
Whole data set: some 18,000 sequences, median “log2 normalized intensity” near 0.39, cut for the highest 2% near 6.6. The sample as a whole holds a higher share of the highest values than the screen did.
Threshold 1 log2 normalized intensity: binding signal strictly smaller gives yes, otherwise no.

TAAAACCATGCAAATTGCTGACTTTCTGTGGCCTAGGGAGATTAGAGTATCGGTCGA | yes
CCTTTGGTCTAAACCTACTTAGATCAAGATGCCTAGGGAGATTAGAGTATCGGTCGA | yes
GTTTACTCATGTGGTCCTAAGACTGACCTTGCCTAGGGAGATTAGAGTATCGGTCGA | no
ATGGTGGAGGGTCTTGCTTTGATGTTGATGGCCTAGGGAGATTAGAGTATCGGTCGA | no
GAGACTTTGGACTTTGGACTTGGGACTTTCGCCTAGGGAGATTAGAGTATCGGTCGA | no
CAGTGGTAACCACAGTACTGTCTTTTTGCCGCCTAGGGAGATTAGAGTATCGGTCGA | yes
TCCTCTTATCTTCAGGTTTGCTAATATCTGGCCTAGGGAGATTAGAGTATCGGTCGA | no
AGAAATCCACACAGCACTGACCTTTGAGAGGCCTAGGGAGATTAGAGTATCGGTCGA | no

Next, consider the following sequence.
# TODO verify binding signal < 1 log2 normalized intensity strictly for this sequence: `CAGTTTTTGTTTGCACCTCACAGGAAGAACGCCTAGGGAGATTAGAGTATCGGTCGA`
no
